Origin of the recorded values: ChEMBL document CHEMBL4350965

Molecular target: Phosphatidylinositol 4,5-bisphosphate 3-kinase catalytic subunit delta isoform (Homo sapiens, UniProt O00329)
Sequence (O00329 whole entry, canonical isoform): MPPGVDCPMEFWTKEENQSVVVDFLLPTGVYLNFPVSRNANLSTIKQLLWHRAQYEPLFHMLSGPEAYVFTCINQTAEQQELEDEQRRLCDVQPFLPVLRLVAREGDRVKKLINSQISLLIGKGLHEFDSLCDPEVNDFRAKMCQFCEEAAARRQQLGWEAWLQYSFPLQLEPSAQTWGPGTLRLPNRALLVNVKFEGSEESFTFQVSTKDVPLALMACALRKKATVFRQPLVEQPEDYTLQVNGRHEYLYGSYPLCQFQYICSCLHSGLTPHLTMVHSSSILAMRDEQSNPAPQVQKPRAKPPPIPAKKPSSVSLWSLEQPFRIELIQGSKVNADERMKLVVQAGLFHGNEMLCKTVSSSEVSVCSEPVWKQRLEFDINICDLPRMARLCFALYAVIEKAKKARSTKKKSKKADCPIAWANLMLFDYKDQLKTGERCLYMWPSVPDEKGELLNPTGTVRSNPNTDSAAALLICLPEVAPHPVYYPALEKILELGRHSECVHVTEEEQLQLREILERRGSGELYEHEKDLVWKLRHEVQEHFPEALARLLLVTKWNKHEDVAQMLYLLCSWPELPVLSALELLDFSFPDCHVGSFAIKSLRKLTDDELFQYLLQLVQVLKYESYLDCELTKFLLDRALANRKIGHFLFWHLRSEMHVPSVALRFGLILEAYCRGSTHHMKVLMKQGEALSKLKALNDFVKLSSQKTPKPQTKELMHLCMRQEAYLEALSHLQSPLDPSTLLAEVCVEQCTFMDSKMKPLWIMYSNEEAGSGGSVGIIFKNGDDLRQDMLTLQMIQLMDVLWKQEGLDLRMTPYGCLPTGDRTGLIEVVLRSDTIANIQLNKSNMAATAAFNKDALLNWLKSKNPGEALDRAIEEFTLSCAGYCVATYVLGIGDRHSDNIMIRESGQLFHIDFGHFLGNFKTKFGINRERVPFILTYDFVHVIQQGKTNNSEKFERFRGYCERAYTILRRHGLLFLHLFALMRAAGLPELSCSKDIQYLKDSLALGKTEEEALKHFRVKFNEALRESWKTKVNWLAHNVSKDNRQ
Experiment: Inhibition of PI3Kdelta in human whole blood assessed as reduction in fMLP-stimulated CD63 expression in basophils preincubated for 30 mins followed by fMLP stimulation
Assay type: tissue-based
VALUE_KIND: IC50 (µM)

CC(=O)c1cnc(N)nc1N1CC[C@H]1c1nn2ccc(Cl)c2c(=O)n1-c1ccccc1 = 0.337

---

Assay: Stability in rat liver microsomes assessed as parent compound remaining at 1 uM measured after 30 mins in presence of NADPH generating system
// boundary case: remaining at 0.5 h, 1 µM equal to 40% maps to False; strictly smaller maps to True

CC(=O)c1c[nH]c2ncnc(N3CCC[C@H]3c3nn4ccc(F)c4c(=O)n3-c3ccccc3)c12 = True
CC(=O)c1c[nH]c2ncnc(N3C[C@@H](F)C[C@H]3c3nn4ccc(Cl)c4c(=O)n3-c3ccccc3)c12 = False
O=c1c2c(Cl)ccn2nc([C@@H]2CCCN2c2ncnc3[nH]cnc23)n1-c1ccccc1 = True
CC(=O)c1c[nH]c2ncnc(N3CCC[C@H]3c3nn4ccc(Cl)c4c(=O)n3-c3ccccc3)c12 = False
N#Cc1c[nH]c2ncnc(N3CCC[C@H]3c3nn4ccc(Cl)c4c(=O)n3-c3ccccc3)c12 = True
N#Cc1c[nH]c2ncnc(N3CC[C@H]3c3nn4ccc(Cl)c4c(=O)n3-c3ccccc3)c12 = False
O=c1c2c(Cl)ccn2nc([C@@H]2C[C@H](F)CN2c2ncnc3[nH]cnc23)n1-c1ccccc1 = False
O=c1c2c(Cl)ccn2nc([C@@H]2CCN2c2ncnc3[nH]cnc23)n1-c1ccccc1 = False
N#Cc1c[nH]c2ncnc(N3CCC[C@H]3c3nn4cccc4c(=O)n3-c3ccccc3)c12 = True
O=c1c2cccn2nc([C@@H]2CCCN2c2ncnc3[nH]cnc23)n1-c1ccccc1 = False

---

# reported pIC50; entries follow
Assay: Inhibition of PI3Kgamma in […] RAW264.7 cells assessed as reduction in C5a-stimulated AKT phosphorylation at Ser473 residue preincubated for 30 mins followed by C5a-stimulation and measured after 5 mins
Format: cell-based
pIC50: −log10 of the molar value.
VALUE_KIND: pIC50

CC(=O)c1c[nH]c2ncnc(N3CC[C@H]3c3nn4ccc(Cl)c4c(=O)n3-c3ccccc3)c12 = 6.85
N#Cc1c[nH]c2ncnc(N3CC[C@H]3c3nn4ccc(Cl)c4c(=O)n3-c3ccccc3)c12 = 6.82
CC(=O)c1c[nH]c2ncnc(N3CCC[C@H]3c3nn4ccc(F)c4c(=O)n3-c3ccccc3)c12 = 7.38
C[C@H](Nc1ncnc2nc[nH]c12)c1cc2cccc(Cl)c2c(=O)n1-c1ccccc1 = 7.60

---

Biological target: Phosphatidylinositol 4,5-bisphosphate 3-kinase catalytic subunit delta isoform (Homo sapiens, UniProt O00329)
Assay: Inhibition of PI3Kdelta in human whole blood assessed as reduction in anti-IgM-stimulated CD69 expression on B-cells preincubated for 60 mins followed by anti-IgM stimulation and measured after overnight incubation by flow cytometry
Format: tissue-based
VALUE_KIND: IC50

CC(=O)c1cnc(N)nc1N1CC[C@H]1c1nn2ccc(Cl)c2c(=O)n1-c1ccccc1 = 63 nM

---

Experiment: Oral bioavailability in Beagle dog at 5 mg/kg by LC-MS/MS analysis
Assay type: ADME, organism-based, Canis lupus familiaris
Details: in vivo
VALUE_KIND: bioavailability

CC(=O)c1cnc(N)nc1N1CC[C@H]1c1nn2ccc(Cl)c2c(=O)n1-c1ccccc1 = 82.4%
